molecular target: T1, human GFRα3 expressed with a C-terminal myc-myc-hexahistidine tag (human, UniProt O60609 32-374, biotinylated (sites not given) in ELISA format 2 and in the Octet cross-competition; not in SPR); assay: Octet cross-competition; biotin-hGFRα3-mmH pre-saturated with first antibody H4H2350P
T1 construct: also called hGFRα3-mmh; hGFRα3-mmH
T1 sequence (O60609 other isoform, or with tags, fused parts or gaps limits assumed): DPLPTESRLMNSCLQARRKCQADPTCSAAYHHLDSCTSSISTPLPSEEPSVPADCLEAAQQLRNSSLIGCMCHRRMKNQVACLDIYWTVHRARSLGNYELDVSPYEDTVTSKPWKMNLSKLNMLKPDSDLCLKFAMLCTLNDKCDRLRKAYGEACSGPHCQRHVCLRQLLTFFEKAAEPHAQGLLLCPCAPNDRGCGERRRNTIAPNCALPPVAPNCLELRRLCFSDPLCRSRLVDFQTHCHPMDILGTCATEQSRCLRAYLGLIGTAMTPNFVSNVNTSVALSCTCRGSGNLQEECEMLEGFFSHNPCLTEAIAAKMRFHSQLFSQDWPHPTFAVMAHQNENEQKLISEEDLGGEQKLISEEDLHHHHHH
readout.name: binding response of second antibody (nm)
Reply with just the number (in nm).

{"binder": "H4H2295S (antibody, human IgG4, V domains shown, human IgG4 Fc (H4H)) VH: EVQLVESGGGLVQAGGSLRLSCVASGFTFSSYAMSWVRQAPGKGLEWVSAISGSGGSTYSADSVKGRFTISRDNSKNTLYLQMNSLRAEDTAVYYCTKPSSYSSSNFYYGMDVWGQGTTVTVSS VL: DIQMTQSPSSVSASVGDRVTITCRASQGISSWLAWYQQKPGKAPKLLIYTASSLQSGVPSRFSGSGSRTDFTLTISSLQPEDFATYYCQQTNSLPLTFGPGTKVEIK", "binding response of second antibody (nm)": 2.05}
{"binder": "H4H2294S (antibody, human IgG4, V domains shown, human IgG4 Fc (H4H)) VH: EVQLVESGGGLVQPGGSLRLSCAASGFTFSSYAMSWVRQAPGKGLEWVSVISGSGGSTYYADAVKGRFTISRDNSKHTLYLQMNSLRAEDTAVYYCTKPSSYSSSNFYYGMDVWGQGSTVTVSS VL: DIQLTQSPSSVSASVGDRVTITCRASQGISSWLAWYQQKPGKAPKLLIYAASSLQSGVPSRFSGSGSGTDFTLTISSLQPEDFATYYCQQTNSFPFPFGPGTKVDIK", "binding response of second antibody (nm)": 2}
{"binder": "H4H2236N3 (antibody, human IgG4, V domains shown, human IgG4 Fc (H4H)) VH: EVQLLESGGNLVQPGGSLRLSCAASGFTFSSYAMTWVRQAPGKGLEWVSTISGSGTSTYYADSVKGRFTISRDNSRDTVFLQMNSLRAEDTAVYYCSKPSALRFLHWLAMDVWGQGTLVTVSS VL: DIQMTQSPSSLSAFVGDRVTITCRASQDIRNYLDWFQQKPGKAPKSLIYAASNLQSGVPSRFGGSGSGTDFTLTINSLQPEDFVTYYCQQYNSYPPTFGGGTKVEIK", "binding response of second antibody (nm)": 1.98}

--- query ---
Challenge: Name the recorded binding response of second antibody (nm) for H4H2342P (antibody, human IgG4, V domains shown, human IgG4 Fc (H4H)) VH: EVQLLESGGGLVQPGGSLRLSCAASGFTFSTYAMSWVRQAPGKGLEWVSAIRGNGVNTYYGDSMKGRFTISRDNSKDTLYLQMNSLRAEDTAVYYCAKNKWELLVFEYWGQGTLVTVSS VL: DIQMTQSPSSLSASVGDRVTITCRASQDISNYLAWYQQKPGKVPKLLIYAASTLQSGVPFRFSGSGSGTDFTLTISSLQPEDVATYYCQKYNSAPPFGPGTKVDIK .
Response given: 1.8
